B1: library; a variant is named by its letters at N, in order (parent)
chain: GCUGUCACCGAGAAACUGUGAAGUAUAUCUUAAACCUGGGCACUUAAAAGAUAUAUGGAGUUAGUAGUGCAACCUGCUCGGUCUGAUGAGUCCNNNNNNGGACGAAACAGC

- Variants of: B1
- assayOverview: normalized RNA/DNA level with ligand (relative to sTRSVctl = 100) (log10 (% of sTRSVctl)); HEK293T; ligand: cyclic di-GMP (c-di-GMP-II aptamer); ligand concentration (+) RNA-Seq: 1 mM; higher = less ribozyme self-cleavage, higher mRNA level
- experimentalParameters: reporter: mCherry (pCS4076), ligand present: yes
quantityKind: normalized RNA/DNA level with ligand (log10)
// print number alone

• CGAUUA = 1.43
• UGACUU = 1.85

Q: Name the reported normalized RNA/DNA level with ligand (log10) value associated with the variant CUUGUC
Ans: 1.89

Q: Consider next the variant GGUUCC in the same way.
Ans: 1.96

Q: Consider next the variant CACUUG in the same way.
Ans: 1.87

Q: Consider next the variant AGAGAU in the same way.
Ans: 1.79
